Cited source: the supplement of paper PMC10567573

B1: DYRK1B (parent)
chain: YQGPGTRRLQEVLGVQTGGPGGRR

- Variants of: B1
- Procedure summary: protein stability index of a GFP-peptide fusion (GPS, HEK-293T) (PSI 1-6); higher = more stable;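 note: lentivirally expressed fusions sorted by FACS into six bins by GFP to DsRed ratio, PSI derived from sequencing read proportions per bin multiplied by bin number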
- Cond: c terminus: a fixed tail appended
Readout kind: protein stability index
Number only, no unit.

Worked examples, 5 variants total:
V12T; 3.75
G19P; 3.66
R8K; 2.9
V15D; 3.23
G14D; 4.18

Using the record for `P20K` , report its protein stability index.
3.83

Now give it for `L9T` too.
4.27

Now give it for `Q16I` too.
1.74

Now give it for `G19S` too.
2.81

Now give it for `Q10A` too.
1.95

Now give it for `P20L` too.
2.82
